The reported measurements were obtained from PubChem BioAssay (Tox21).

# Test: qHTS assay to identify small molecule agonists of the hypoxia (HIF-1) signaling pathway - cell viability counter screen (AID 1224844); also: nearly all actives have a fitted effect of over 50% in size
# Settings: HRE-bla ME-180 viability, CellTiter-Glo luminescence, 17 h; series mostly up to 76.8 µM
Records with an inconclusive call do not appear. Activity calls are given as the source filed them. Calls follow the shape of the full dose curve.
The reply should be one of these categories: Y (active), N (inactive)

Which outcome did this test record for the compound CC1=NC(C)OC1C (stereo unspecified) ? N

Which outcome did this test record for the compound CCCCCCCCS(=O)C(C)Cc1ccc2c(c1)OCO2 (stereo unspecified) ? N

Which outcome did this test record for the compound "Nc1ccc2cc(S(=O)(=O)O)cc(O)c2c1N=Nc1ccccc1C(F)(F)F" ? N

Which outcome did this test record for the compound "Nc1ccc(N)c2ccccc12" ? Y

Which outcome did this test record for the compound "COc1cccc(N)c1" ? N

Which outcome did this test record for the compound "CC(=O)N1CCN(c2ccc(OC[C@H]3CO[C@](Cn4ccnc4)(c4ccc(Cl)cc4Cl)O3)cc2)CC1" ? Y

Which outcome did this test record for the compound Cc1nc(-c2ccc3c(c2)CCN(CCC2CCC(NC(=O)/C=C/c4ccc(F)cc4)CC2)CC3)no1 (stereo unspecified) ? N

Which outcome did this test record for the compound "CN(C)c1ccc(C2(c3ccc(N(C)C)cc3)OC(=O)c3cc(N(C)C)ccc32)cc1" ? N

Which outcome did this test record for the compound "CC(C)CCCCCCCCCCCCCCC(=O)O" ? Y

Which outcome did this test record for the compound "CSc1ccc(C(=O)c2[nH]c(=O)[nH]c2C)cc1" ? N

Which outcome did this test record for the compound "C[C@]12CCC(=O)C=C1CC[C@@H]1[C@@H]2[C@@H](O)C[C@@]2(C)[C@H]1CC[C@]2(O)C(=O)COC(=O)CCC(=O)O" ? N
